SUBJECT_OF_TEST: Rap guanine nucleotide exchange factor 3 (Homo sapiens) (UniProt O95398)
Sequence (O95398 whole entry, looked up): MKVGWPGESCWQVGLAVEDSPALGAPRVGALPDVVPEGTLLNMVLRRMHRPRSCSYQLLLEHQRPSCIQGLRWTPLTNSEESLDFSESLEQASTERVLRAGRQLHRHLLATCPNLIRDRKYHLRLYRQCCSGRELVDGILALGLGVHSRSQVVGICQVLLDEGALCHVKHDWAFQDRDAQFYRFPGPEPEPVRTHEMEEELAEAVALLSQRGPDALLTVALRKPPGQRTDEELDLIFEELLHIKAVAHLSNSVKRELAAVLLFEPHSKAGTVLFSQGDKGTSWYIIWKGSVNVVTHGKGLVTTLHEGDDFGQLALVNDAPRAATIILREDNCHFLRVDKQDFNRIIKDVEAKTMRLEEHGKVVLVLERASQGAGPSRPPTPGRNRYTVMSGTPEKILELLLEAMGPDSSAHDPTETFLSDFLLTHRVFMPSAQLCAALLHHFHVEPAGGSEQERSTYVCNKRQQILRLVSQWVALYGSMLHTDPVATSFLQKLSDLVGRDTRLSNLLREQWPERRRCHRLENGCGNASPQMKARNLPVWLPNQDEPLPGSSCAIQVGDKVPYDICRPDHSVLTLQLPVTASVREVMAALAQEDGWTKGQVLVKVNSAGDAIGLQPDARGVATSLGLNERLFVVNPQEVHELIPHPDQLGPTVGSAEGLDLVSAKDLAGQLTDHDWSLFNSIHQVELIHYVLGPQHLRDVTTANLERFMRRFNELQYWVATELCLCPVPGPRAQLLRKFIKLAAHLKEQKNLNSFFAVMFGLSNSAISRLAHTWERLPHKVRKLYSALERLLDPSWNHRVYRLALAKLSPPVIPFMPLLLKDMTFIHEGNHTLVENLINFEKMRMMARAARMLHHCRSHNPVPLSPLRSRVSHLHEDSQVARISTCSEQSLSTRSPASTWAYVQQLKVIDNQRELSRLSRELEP
ASSAY_COMMENT: Counterscreen qHTS for antagonist of cAMP-regulated guanine nucleotide exchange factor 3 (EPAC1) (AID 1645888);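 note: fluorescence loss as bound BODIPY-GDP is released from Rap1B; % of control where 0% means no effect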
EXPERIMENTAL_CONTEXT: Rap1B-BODIPY-GDP nucleotide exchange, fluorescence; series mostly up to 154 µM
Inconclusive results are not listed. Active and inactive are the calls of the source. Calls come from the whole dose curve; as a rule, active = well fitted inhibition curve with a large enough effect; inconclusive = small, poorly fitted or top-dose-only effect; inactive = no such curve, though single readings can be large or run the other way.
PARAMETER: activity change, negative = inhibition

[
  {
    "MOLECULE": "CC(C)(C)C(C(=O)n1cccc1C#N)c1ccccc1 (configuration not stated)",
    "SUBJECT_OF_TEST": "Rap guanine nucleotide exchange factor 3 (Homo sapiens) (UniProt O95398)",
    "activity change, negative = inhibition": "3.86% [at 30.8 µM] (inactive)"
  },
  {
    "MOLECULE": "CCOc1ccc(NC(=O)c2ccc(NC(=O)COC(=O)c3ccc(NC(=O)CC#N)cc3)cc2)cc1",
    "SUBJECT_OF_TEST": "Rap guanine nucleotide exchange factor 3 (Homo sapiens) (UniProt O95398)",
    "activity change, negative = inhibition": "inactive"
  },
  {
    "MOLECULE": "Cc1cc2nc(-c3ccc(SCc4ccccn4)nc3)[nH]c2cc1C",
    "SUBJECT_OF_TEST": "Rap guanine nucleotide exchange factor 3 (Homo sapiens) (UniProt O95398)",
    "activity change, negative = inhibition": "1.95% [at 30.8 µM] (inactive)"
  },
  {
    "MOLECULE": "COc1cccc(C(=O)NC(=S)N2c3ccccc3CC2C)c1OC (configuration not stated)",
    "SUBJECT_OF_TEST": "Rap guanine nucleotide exchange factor 3 (Homo sapiens) (UniProt O95398)",
    "activity change, negative = inhibition": "-1.25% [at 30.8 µM] (inactive)"
  },
  {
    "MOLECULE": "Cn1c(N)c(C(=O)COC(=O)Cc2ccc(Cl)c(Cl)c2)c(=O)n(C)c1=O",
    "SUBJECT_OF_TEST": "Rap guanine nucleotide exchange factor 3 (Homo sapiens) (UniProt O95398)",
    "activity change, negative = inhibition": "inactive"
  }
]

get_value(item= CC1(Cc2cc(Cl)ccc2C(F)(F)F)C(=O)Nc2cc(F)ccc21 (configuration not stated) , readout=activity change, negative = inhibition) returns -15.8% [at 30.8 µM] (inactive)

Entry under test: `CN(Cc1ccc(Cl)cc1Cl)C(=O)CN1C(=O)NC2(CCCC2)C1=O` . Its activity change, negative = inhibition was inactive

Noted for `Cc1nnc(SCc2nnc(-c3ccc(Cl)cc3)o2)n1-c1ccccc1` : its activity change, negative = inhibition reads inactive

So for `O=C1CSC(=Nc2ccccc2)N1Cc1ccccc1` , the logged activity change, negative = inhibition turned out to be inactive

Data point: CCN1CCN(c2ccc(S(=O)(=O)N3CCCCC3)cc2NC(=O)C(C)Oc2ccc(F)cc2)CC1 (configuration not stated) ; activity change, negative = inhibition = inactive

Record summary for O=C(c1ccco1)N(CCC(c1ccccc1)c1ccco1)Cc1ccccc1 (configuration not stated) : reported activity change, negative = inhibition = -8.3% [at 30.8 µM] (inactive)

Quick note, activity change, negative = inhibition for `O=C(Nc1ccccc1N1CCCCC1)C1=COCCO1` landed at inactive

`Cn1c(=O)c2c(-c3ccccc3Br)n(Cc3ccccc3)cc2n(C)c1=O` has a reported activity change, negative = inhibition of inactive

Form: molecule = `O=S(=O)(c1ccc(Br)c2ccccc12)N1CCCC1` ; activity change, negative = inhibition = inactive

The reported activity change, negative = inhibition of the molecule `Cc1cccc(CNC(=O)c2ccc(-c3nc(CS(=O)(=O)c4ccccc4)c(C)o3)cc2)c1` was inactive

Consider `COc1cc(/C=C2\SC(=O)N(c3cccc(Cl)c3)C2=O)cc([N+](=O)[O-])c1O` . Its measured activity change, negative = inhibition is inactive

The molecule listed as `COc1cccc(Cn2c(=O)c3ccccc3n3nc(C)cc23)c1` shows activity change, negative = inhibition equal to inactive

Just so you know, measured activity change, negative = inhibition for `CN(CC(=O)Nc1ccc(Cl)c(C(F)(F)F)c1)C(=O)Cc1c[nH]c2ccccc12` came out at -15.4% [at 30.8 µM] (inactive)

// activity change, negative = inhibition lookup, molecule = COc1ccc(OC)c(NC(=O)C2(C)CCN2CCc2ccccc2)c1 (configuration not stated) , result: inactive

// field: activity change, negative = inhibition; key: CCC(C(=O)O)N1C(=O)/C(=C/C(C)=C/c2ccccc2)SC1=S (configuration not stated) ; value = inactive

response.value for `COc1ccc(OCC(=O)NCc2ccc3c(c2)CCN3C(=O)c2cccc(C)c2)cc1` (field: activity change, negative = inhibition) = inactive

Looking up `Cc1ccc(C2(c3noc(CN(C)Cc4ccccn4)n3)CCCC2)cc1` , I found its activity change, negative = inhibition recorded as -21.5% [at 30.8 µM] (inactive)
